meta.source: the kinase profiling compilation of Christmann-Franck et al. (2016)

target: MAPK8 (human) (UniProt P45983); assay: radiometric filter-binding kinase assay; settings: compound 0.1 µM
Sequence (P45983 whole entry, looked up): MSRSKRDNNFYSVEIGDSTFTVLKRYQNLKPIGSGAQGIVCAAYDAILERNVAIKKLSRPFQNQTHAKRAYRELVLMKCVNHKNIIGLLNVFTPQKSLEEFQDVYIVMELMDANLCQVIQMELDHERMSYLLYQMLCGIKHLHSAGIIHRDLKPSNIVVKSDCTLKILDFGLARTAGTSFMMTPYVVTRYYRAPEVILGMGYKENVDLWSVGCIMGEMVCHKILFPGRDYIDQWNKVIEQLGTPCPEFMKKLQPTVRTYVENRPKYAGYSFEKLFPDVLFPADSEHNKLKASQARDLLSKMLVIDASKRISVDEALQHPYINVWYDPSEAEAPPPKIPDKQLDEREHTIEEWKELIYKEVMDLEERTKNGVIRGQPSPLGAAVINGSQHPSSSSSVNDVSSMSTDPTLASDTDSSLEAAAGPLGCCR
measurement.name: residual activity (%)

Known residual activity results, listed for orientation:
NC(=O)c1cc(-c2ccnc(NC3CCCCC3)c2)nc(N2CCNCC2)c1: 109
Cn1c(=O)c2c(ncn2C)n(C)c1=O: 92
CCCCCc1ccc(/C=C/[C@H](O)[C@@H](CO)NC)cc1: 98
Cc1ccc(-c2ccc3c(ccc4sc5c(c43)NC[C@@H](C)NC5=O)n2)cn1: 96

(1) NC1(c2ccc(-c3nc4ccn5c(=O)[nH]nc5c4cc3-c3ccccc3)cc2)CCC1
(2) CNC(=O)C1[C@H]2O[C@@](C)([C@@H]1N)n1c3ccccc3c3c4c(c5c6ccccc6n2c5c31)C(=O)NC4 (stereo partly specified)
Qu. Hi team, can someone confirm which has the larger residual activity: 1 or 2 ? Thanks. The response must carry the label of the picked entry.
Ans. 1
